Each recorded value in this set is attributed to PubChem BioAssay (NCI).

# Tested on: SF-539 CNS
# PROCEDURE_DETAILS: NCI tumour cell line growth inhibition, 48 h; in the data active = GI50 below about 0.43 µM; inactive = the rest
Outcomes: Yes = active, No = inactive

1. OCC1OC(OC2(CO)OC(CO)C(O)C2O)C(O)C(O)C1O (stereo not given)    No
2. CC[n+]1c(-c2ccccc2)c2cc(N)ccc2c2ccc(N)cc21    No
3. Cn1cc(-c2ccc3ncc(-c4ccc(CC(=O)Nc5cc(C(C)(C)C)nn5C)cc4)cc3c2)cn1    No
4. NCCCNc1nc2ccccc2c2c(=O)c3cc(Cl)ccc3sc12    No
5. COc1cc([C@@H]2c3cc4c(cc3[C@H](SC(=N)N)[C@H]3COC(=O)[C@H]23)OCO4)cc(OC)c1OC    Yes
6. CCc1ccc(Oc2c(-c3ccc(OCc4ccc(Cl)cc4)cc3O)nn(C)c2C(F)(F)F)cc1    No
7. C/C(=N\NC(=S)N1CCC1)c1ccccn1    Yes
8. OCc1ccc(-c2ccc(-c3ccc(CO)o3)o2)o1    No
9. CCN(CC)CCCC(Nc1c2ccc(Cl)cc2nc2ccc(OC)cc12)c1ccc(Cl)cc1 (stereo not given)    No
10. Oc1cn(-c2ccc(Cl)cc2)nc1-c1n[nH]c(=S)n1-c1ccc(F)cc1    No

====

# Test system: CCRF-CEM leukemia
# PROCEDURE_DETAILS: NCI tumour cell line growth inhibition, 48 h
MEASURED_PROPERTY: TGI

1) CC(C)=CC1C(C(=O)OCc2cc3c(cc2Cl)OCO3)C1(C)C (stereo not given)    > 100 µM
2) N#CC(C(=O)Nc1ccccc1)C1=C(Cl)C(=O)c2ccccc2C1=O (stereo not given)    > 100 µM
3) C[C@H]1CCC/C=C/[C@@H]2C[C@H](OC3OC(CO)C(O)C(O)C3O)C[C@H]2[C@H](O)/C=C/C(=O)O1 (stereo not given in full)    > 100 µM
4) COc1ccc(S(=O)(=O)NC(CCC(=O)NC(N)=O)C(=O)NC(N)=O)cc1 (stereo not given)    > 100 µM
5) [O-][n+]1c2cccc(O)c2[n+]([O-])c2cccc(O)c21    56 µM
6) COc1c(OC2OC(CO)C(O)C(O)C2O)cc2c(c1OC)-c1ccc(OC)c(=O)cc1C(NC(C)=O)CC2 (stereo not given)    > 100 µM
7) COCc1cc2c(s1)C(=O)C1=C(C2=O)C2(C=C(Br)C(=O)C(Br)=C2)CCN1    16.7 µM
8) O=C(Nc1cccc2ccccc12)c1cc2ccccc2oc1=O    > 100 µM
9) CC(=O)Nc1cccc(C#Cc2cncnc2Nc2ccc(OCc3cccc(F)c3)c(Cl)c2)c1    > 25 µM
10) O=C(CCCCN1CCN(CCCCC(=O)Nc2ccccc2C#C/C=C\C#Cc2ccccc2C(F)(F)F)CC1)Nc1ccccc1C#C/C=C\C#Cc1ccccc1C(F)(F)F    17 µM
11) C1CN2CCO[SiH](O1)OCC2    > 100 µM
12) COC(=O)[C@H](C)NC(=O)[C@H](NS(=O)(=O)c1nc2ccccc2s1)c1ccccc1    > 100 µM
13) COC(=O)c1c(O)ccc2c1c1c(n2Cc2ccc(OC)cc2)C(=O)c2ccccc2C1    89.4 µM
14) Cc1ccccc1Nc1cc(O)c2c(=O)cc(-c3ccccc3)oc2c1    > 100 µM
15) NC1CCC2(O)c3ccccc3C2C1 (stereo not given)    > 100 µM
16) CCOC(=O)N1CCNCCN(C(=O)OCC)CCNCC1    > 100 µM
17) COc1ccc2oc(=O)c(-c3cc4c(c(C)n3)c(=O)oc3ccc(OC)cc34)cc2c1    > 100 µM
18) CC(C)(C)C1=NO[C@H]2[C@@H](NC(=O)c3ccccc3)CC[C@@H]12    > 100 µM
19) CCCCCCCCCCCCCCCCNc1nc(=O)n(C2OC(C)C(O)C2O)cc1F (stereo not given)    42.6 µM
20) O=C1C2C(C(=O)N1Cc1ccccc1)N(Cc1ccccc1)C(=O)N2Cc1ccccc1 (stereo not given)    > 100 µM
21) COc1cc2c(cc1O)NC(=O)[C@@H]1C[C@@H](O)CN1C2=O    > 100 µM
22) CC(C)OC(=O)C(NC(=O)C(CC(=O)OCc1ccccc1)NC(=O)OCc1ccccc1)NC(=O)C1C(C)(C)CCC1(C)C (stereo not given)    > 41.2 µM
23) CC1(C)C(=O)/C(=C/c2ccccc2)C(C)(C)C1(C)C    > 71.5 µM
24) CC(=O)Oc1cc2c(cc1OCC(F)(F)F)[C@H]1CC[C@]3(C)[C@@H](OC(C)=O)CC[C@H]3[C@@H]1CC2=O    40.1 µM
25) Nc1ncnc2c1c(-c1ccc(Oc3ccccc3)cc1)nn2CC1SSCC1O (stereo not given)    32.5 µM
26) COc1cc(C=O)cc(C=Nc2ccc(Br)cc2)c1O    27.7 µM
27) CC(C)(NO)/C(=N\O)c1ccccc1    > 10 µM
28) COC1=C(OC)C(=O)C(Cc2c(Cl)nc3sccn23)=C(C)C1=O    5.44 µM
29) C#COc1cccc(Nc2ncnc3cc(NC(=O)[C@@H](C)Cl)ccc23)c1    > 62.5 µM
30) COc1cccc2c(=O)oc(-c3ccccc3C)nc12    73 µM
31) CNC(=O)OCc1nc(SSc2nc(COC(=O)NC)c(COC(=O)NC)n2C)n(C)c1COC(=O)NC    > 100 µM
32) N#Cc1cc(F)cc(Oc2ccc(S(=O)(=O)C(F)F)c3c2CC(F)(F)[C@H]3O)c1    > 100 µM
33) Cn1c(CO)ccc1-c1ccc(-c2ccc(CO)[se]2)[se]1    > 21 µM
34) O=C(Nc1ccc(-n2cc(-c3ccncc3)c(-c3ccc(Cl)c(O)c3)n2)cc1)c1cc(C(F)(F)F)cc(C(F)(F)F)c1    > 100 µM
35) OCC1OC(OC2(CO)OC(CO)C(O)C2O)C(O)C(O)C1O (stereo not given)    > 100 µM

====

# Test system: RXF 393 renal
# PROCEDURE_DETAILS: NCI tumour cell line growth inhibition, 48 h
Assign fulfilled to entries whose TGI meets or exceeds 10 µM; assign not fulfilled to the rest.

1) CC(C)(C)C1=NO[C@H]2[C@@H](NC(=O)c3ccccc3)CC[C@@H]12    fulfilled
2) CO[C@H]1C(=O)[C@]2(C)[C@@H](OC)C[C@H]3OC[C@@]3(OC(C)=O)[C@H]2[C@H](OC(=O)c2ccccc2)[C@]2(O)C[C@H](OC(=O)[C@H](O)[C@@H](NC(=O)OC(C)(C)C)c3ccccc3)C(C)=C1C2(C)C    fulfilled
3) Cc1ccc(S(=O)(=O)Nc2ccccc2C(C)(C)C)cc1    fulfilled
4) Cc1ccc(S(=O)(=O)OCCN(CCOS(=O)(=O)c2ccc(C)cc2)c2ccc(C=O)cc2)cc1    fulfilled
5) O=C(Nc1nc(=S)[nH][nH]1)C(=O)C(c1cnc2ccc([N+](=O)[O-])cc2n1)[N+](=O)[O-] (stereo unspecified)    fulfilled
6) O=C(O)[C@H]1NC[C@H]2C(Br)=NO[C@@H]12    fulfilled
7) C=CCOC(C)(C)C1=CCC(C)CC1 (stereo unspecified)    fulfilled
8) [N-]=[N+]=CC(=O)C1CCN(c2ccccc2)C1=O (stereo unspecified)    fulfilled
9) OC1=CN=C(c2ccccc2)Oc2ccccc21    fulfilled
10) C/C(=N\NC(=S)NC(C)(C)C)c1nc2ncccc2[nH]1    fulfilled
11) O=[N+]([O-])/C=C/c1ccc2ccccc2c1    not fulfilled
12) Cc1ccc(C(=O)Nc2ccc(Oc3cc4cnn(C)c4cc3-c3cn[nH]c3)c(F)c2)c(=O)n1-c1ccc(F)cc1    fulfilled
13) CCc1c(OC(C)=O)c2c(NC3OC(COC(C)=O)C(OC(C)=O)C(OC(C)=O)C3OC(C)=O)nc(SC)nc2oc1=O (stereo unspecified)    fulfilled
14) Cc1ccccc1Nc1cc(O)c2c(=O)cc(-c3ccccc3)oc2c1    not fulfilled
15) O=C(OCCN=c1c2ccccc2ccc2ccccc12)c1cc([N+](=O)[O-])cc([N+](=O)[O-])c1    fulfilled
16) S=C(Sc1ccc(Cl)cc1)Sc1ccc(Cl)cc1    not fulfilled
17) CCCCCCCCCCCC1=C(O)C(=O)C(CC2=C(O)C(=O)C(CCCCCCCCCCC)=C(O)C2=O)=C(O)C1=O    fulfilled
18) O=[N+]([O-])c1cccnc1S(=O)(=O)c1ccccc1    not fulfilled
19) O=C1C2C(C(=O)N1Cc1ccccc1)N(Cc1ccccc1)C(=O)N2Cc1ccccc1 (stereo unspecified)    fulfilled
20) Nc1c(C(=O)O)c2ccc([N+](=O)[O-])cc2c(=O)n1-c1nc2ccccc2s1    fulfilled
21) CC(=O)Oc1cc2c(cc1OCC(F)(F)F)[C@H]1CC[C@]3(C)[C@@H](OC(C)=O)CC[C@H]3[C@@H]1CC2=O    fulfilled
22) Cc1nc2ccncc2[nH]1    fulfilled
23) COc1ccccc1/C=C(\NC(=O)c1ccccc1)c1nc2ccc(Cl)cc2[nH]1    fulfilled
24) COc1cccc2c(=O)oc(-c3ccccc3C)nc12    fulfilled
25) CC(C)(C)O/N=C/c1cc(NC(=S)c2ccccc2)ccc1Cl    fulfilled
26) OCC1OC(OC2(CO)OC(CO)C(O)C2O)C(O)C(O)C1O (stereo unspecified)    fulfilled
27) CCC(Oc1ccc(OC)c2c1C(=O)CCC2)C(=O)O (stereo unspecified)    fulfilled
28) O=C1OC(=O)c2c1nc1ccccc1c2-c1ccccc1    fulfilled
29) C1CN2CCO[SiH](O1)OCC2    fulfilled
30) CCN(CC)CCCC(Nc1c2ccc(Cl)cc2nc2ccc(OC)cc12)c1ccc(Cl)cc1 (stereo unspecified)    not fulfilled
31) O=C(O)CCCc1ccc2c(c1)C(C(=O)O)CC2 (stereo unspecified)    fulfilled
32) Cc1nnc(SCc2nc(C#N)c(C#N)nc2CSc2nnc(C)s2)s1    fulfilled
33) Nc1nc(-c2ccccc2)c(CC(=O)O)s1    fulfilled
34) C/C(=N\NC(=S)N1CCC1)c1ccccn1    not fulfilled
35) COc1cc([C@@H]2c3cc4c(cc3[C@H](SC(=N)N)[C@H]3COC(=O)[C@H]23)OCO4)cc(OC)c1OC    fulfilled
36) O=c1[nH]c2ccccc2cc1-c1nnc(Cc2ccccc2)o1    fulfilled
37) CC(=O)OC12c3ccccc3C(c3ccccc31)C1C(=O)N(N=C(C)C)C(=O)C12 (stereo unspecified)    fulfilled
38) COCOC1CCCC[C@@]1(OCCOCCO[C@@]1(c2ccccc2)CCCC[C@H]1OCOC)c1ccccc1 (stereo partly specified)    fulfilled
39) CC[C@]1(c2ccc3c(c2)OCO3)C=[N+]([O-])O[C@H](OC2CCCC2(c2ccccc2)c2ccccc2)[C@@H]1OC(C)=O (stereo partly specified)    not fulfilled
40) NC1CCC2(O)c3ccccc3C2C1 (stereo unspecified)    fulfilled
41) COc1ccc(/C=C/C(=O)c2c(-c3ccccc3)nn(C)c(=O)c2N2CCCCC2)cc1    fulfilled
